System: DMS 114 tumor spheroids, viability % test/control
PROTOCOL NOTES: Anticancer human tumor DMS 114 cell line growth inhibition;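 also: spheroids exposed to compounds for 7 days before read-out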;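 as to viability, T/C: luminescence used as a proxy for viable cells; 100% = DMSO vehicle control viability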
RUN CONDITIONS: second compound 10 µM; first compound 10 µM; stronger effect = lower value; spheroids with HUVEC and MSC
REPORTED PROPERTY: viability, T/C (%)
Your answer should be a plain number; it is taken to be in %.

Reference set, count: 2
COMPOUND	REPORTED PROPERTY	SCALE UNIT	RECORDED NUMBER
CC(C)n1c(=O)n(C)c2cnc3cc(F)c(-c4ccc(OCCCN5CCCCC5)nc4)cc3c21 + Cn1nnc2c(C(N)=O)ncn2c1=O	viability, T/C	%	33.4
[2H]c1nc(C)nc([2H])c1-c1cc(NC[C@@H](C)c2cccc3c(C(=O)NC)ccnc23)ncn1 + Cn1nnc2c(C(N)=O)ncn2c1=O	viability, T/C	%	94.8

Which measured viability, T/C value corresponds to COc1cc(C)[nH]c(=O)c1CN1CCc2c(Cl)cc(C(OC)C3COC3)c(Cl)c2C1=O (stereo unspecified) + Cn1nnc2c(C(N)=O)ncn2c1=O ?
70.1

And the next one, COc1ccc([C@@H](O)c2cc(-c3ncnc4cc(N5CCOCC5)ccc34)c(F)cc2Cl)nn1 + Cn1nnc2c(C(N)=O)ncn2c1=O ?
49.8

Next compound up: CC1COCCN1c1cc(-c2ccnn2C)c2ccnc(-c3ccn[nH]3)c2n1 (stereo unspecified) + Cn1nnc2c(C(N)=O)ncn2c1=O
11.7

// repeat for Cc1cc(C)c(CNC(=O)c2cc(-c3ccc(CN4CCOCC4)cc3)cc3c2cnn3C2CCCC2)c(=O)[nH]1 + Cn1nnc2c(C(N)=O)ncn2c1=O and report
65.9

====

System: DMS 114 tumor spheroids, viability % test/control
PROTOCOL NOTES: Anticancer human tumor DMS 114 cell line growth inhibition;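 also: spheroids exposed to compounds for 7 days before read-out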
RUN CONDITIONS: curve of first compound; second compound 94.9 pM; spheroids with HUVEC and MSC
In this section we review reported IC50 values for a set of compounds.

Sample records with IC50:
COMPOUND	IC50
CC1COCCN1c1cc(-c2ccnn2C)c2ccnc(-c3ccn[nH]3)c2n1 (stereo not given) + COc1cc2c(cc1O)CCNC21CSC2c3c(OC(C)=O)c(C)c4c(c3C(COC1=O)N1C(O)C3Cc5cc(C)c(OC)c(O)c5C(C21)N3C)OCO4	< 31.6 nM
Cn1ncnc1[C@H]1c2n[nH]c(=O)c3cc(F)cc(c23)N[C@@H]1c1ccc(F)cc1 + COc1cc2c(cc1O)CCNC21CSC2c3c(OC(C)=O)c(C)c4c(c3C(COC1=O)N1C(O)C3Cc5cc(C)c(OC)c(O)c5C(C21)N3C)OCO4	104 nM
CC(C)n1c(=O)n(C)c2cnc3cc(F)c(-c4ccc(OCCCN5CCCCC5)nc4)cc3c21 + COc1cc2c(cc1O)CCNC21CSC2c3c(OC(C)=O)c(C)c4c(c3C(COC1=O)N1C(O)C3Cc5cc(C)c(OC)c(O)c5C(C21)N3C)OCO4	1600 nM

I would be grateful if you could share the reported IC50 for O=C(c1cc(Cc2n[nH]c(=O)c3ccccc23)ccc1F)N1CCN(C(=O)C2CC2)CC1 + COc1cc2c(cc1O)CCNC21CSC2c3c(OC(C)=O)c(C)c4c(c3C(COC1=O)N1C(O)C3Cc5cc(C)c(OC)c(O)c5C(C21)N3C)OCO4 .
3670 nM

Now consider [2H]c1nc(C)nc([2H])c1-c1cc(NC[C@@H](C)c2cccc3c(C(=O)NC)ccnc23)ncn1 + COc1cc2c(cc1O)CCNC21CSC2c3c(OC(C)=O)c(C)c4c(c3C(COC1=O)N1C(O)C3Cc5cc(C)c(OC)c(O)c5C(C21)N3C)OCO4 .
> 10000 nM

Same lookup for COc1cc(C)[nH]c(=O)c1CN1CCc2c(Cl)cc(C(OC)C3COC3)c(Cl)c2C1=O (stereo not given) + COc1cc2c(cc1O)CCNC21CSC2c3c(OC(C)=O)c(C)c4c(c3C(COC1=O)N1C(O)C3Cc5cc(C)c(OC)c(O)c5C(C21)N3C)OCO4 , please.
> 10000 nM
